target: human ether-à-go-go-related gene (hERG) potassium channel (human, UniProt Q12809); assay: primary screen, population patch clamp on CHO cells stably expressing hERG; higher = less effect of the substance;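 also: peak tail current of the secondary pulse compared with the same well before compound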
Sequence (Q12809 whole entry, looked up): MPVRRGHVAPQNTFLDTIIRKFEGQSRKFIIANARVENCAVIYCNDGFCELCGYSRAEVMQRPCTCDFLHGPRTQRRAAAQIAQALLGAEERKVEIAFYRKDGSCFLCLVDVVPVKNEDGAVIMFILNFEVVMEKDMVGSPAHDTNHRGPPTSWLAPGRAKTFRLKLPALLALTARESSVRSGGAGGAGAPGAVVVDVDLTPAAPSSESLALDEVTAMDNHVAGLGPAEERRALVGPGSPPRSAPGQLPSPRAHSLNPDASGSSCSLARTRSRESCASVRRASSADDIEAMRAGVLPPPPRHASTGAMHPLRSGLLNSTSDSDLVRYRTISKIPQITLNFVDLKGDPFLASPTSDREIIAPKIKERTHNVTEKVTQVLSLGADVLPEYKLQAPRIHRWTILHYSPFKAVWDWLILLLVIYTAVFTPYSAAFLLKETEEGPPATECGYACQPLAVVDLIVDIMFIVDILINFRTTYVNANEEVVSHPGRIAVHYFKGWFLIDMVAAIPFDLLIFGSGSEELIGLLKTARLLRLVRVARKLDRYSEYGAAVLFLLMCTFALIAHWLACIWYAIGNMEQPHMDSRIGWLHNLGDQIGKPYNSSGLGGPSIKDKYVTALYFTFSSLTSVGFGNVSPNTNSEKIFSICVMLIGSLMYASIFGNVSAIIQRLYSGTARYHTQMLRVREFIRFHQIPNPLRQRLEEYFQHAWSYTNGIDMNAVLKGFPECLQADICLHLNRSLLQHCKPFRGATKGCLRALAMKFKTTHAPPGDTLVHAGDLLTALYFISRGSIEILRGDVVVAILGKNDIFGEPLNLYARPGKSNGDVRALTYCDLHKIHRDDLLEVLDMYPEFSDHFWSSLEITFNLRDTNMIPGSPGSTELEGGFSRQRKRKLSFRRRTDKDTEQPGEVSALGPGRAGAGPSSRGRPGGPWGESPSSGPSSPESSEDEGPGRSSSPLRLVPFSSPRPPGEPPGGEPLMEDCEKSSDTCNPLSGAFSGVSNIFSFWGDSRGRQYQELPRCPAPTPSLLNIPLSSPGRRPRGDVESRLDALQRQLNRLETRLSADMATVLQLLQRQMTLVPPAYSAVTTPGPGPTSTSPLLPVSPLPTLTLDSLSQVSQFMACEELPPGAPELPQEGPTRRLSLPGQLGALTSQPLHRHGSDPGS
Out of some 310,000 compounds screened, about 14,000 (4.5%) showed an effect of 50% or more. The effect is printed as a negative number. The sample holds strong results, similar compounds and a random draw of the others, so the mix is not that of the screen.
measured endpoint: hERG current change (%, negative = inhibition) at 10uM (%)
Answer with a number only, understood to be in %.

Here are 3 compounds together with their reported answers.
CCN1CCc2c(OCC(=O)N3CCCCC3)cccc2C1=O	5.33
COc1ccc(C)cc1NC(=O)c1ccc(NC(=O)CC2SC(N3CCCC3)=NC2=O)cc1 (stereo not shown)	18.2
COC(=O)C1=C(c2ccc(OC(F)(F)F)cc2)C[C@@H]2CC[C@H]1N2C(=O)N1CCCCC1	-56.3

Note hERG current change (%, negative = inhibition) at 10uM for the compound shown: CCCCCNC(=O)Cc1ccc(S(=O)(=O)N2CCOCC2)s1 -5.94

Note hERG current change (%, negative = inhibition) at 10uM for the compound shown: N#Cc1ccc(S(=O)(=O)NC2CCN(Cc3ccccc3)CC2)cc1 -31.8

Note hERG current change (%, negative = inhibition) at 10uM for the compound shown: CCc1noc(C)c1C(=O)NNC(=O)c1ccccc1F 21

Note hERG current change (%, negative = inhibition) at 10uM for the compound shown: COCC(C)n1c(COc2ccccc2F)nnc1SCC(=O)c1c(N)n(C)c(=O)n(C)c1=O (stereo not shown) 16.4

Note hERG current change (%, negative = inhibition) at 10uM for the compound shown: COC(=O)C1=C(c2ccc(C(C)=O)cc2)C[C@@H]2CC[C@H]1N2C(=O)N1CCCC1 0.9

Note hERG current change (%, negative = inhibition) at 10uM for the compound shown: O=C(COc1cccc2c1CCN(Cc1ccccc1)C2=O)N1CCCCC1 -15

Note hERG current change (%, negative = inhibition) at 10uM for the compound shown: O=C(Cc1ccc(S(=O)(=O)N2CCOCC2)s1)NCCOc1ccccc1 -8.35
